Source listed as patent US20060257938A1.

I'd appreciate it if you could supply DR/DR AA values for the items below.
assay-name: Probe fluorescence ratio response to arachidonic acid relative to ADIFAB2
Type: binding
condition-summary: arachidonic acid; response relative to ADIFAB2
Answers are plain numbers.

| molecule | result-type | measured |
| --- | --- | --- |
| 36N, 72A (protein, listed as Rattus norvegicus, PEPTIDE (1)...(131) wild-type rat intestinal fatty acid binding protein) AFDGTWKVDRNENYEKFMEKMGINVVKRKLGAHDNNKLTITQEGNKFTVKESSNFRNIDVVFELGVDFAYSAADGTELTGTWTMEGNKLVGKFKRVDNGKELIAVREISGNELIQTYTYEGVEAKRIFKKE | DR/DR AA | 0.47 |

Provide each entry's DR/DR AA from the list below.
1. 72S 73P 74I (protein, listed as Rattus norvegicus, PEPTIDE (1)...(131) wild-type rat intestinal fatty acid binding protein) AFDGTWKVDRNENYEKFMEKMGINVVKRKLGAHDNLKLTITQEGNKFTVKESSNFRNIDVVFELGVDFAYSSPIGTELTGTWTMEGNKLVGKFKRVDNGKELIAVREISGNELIQTYTYEGVEAKRIFKKE
2. 38M 104S 115A 74F 72A (protein, listed as Rattus norvegicus, PEPTIDE (1)...(131) wild-type rat intestinal fatty acid binding protein) AFDGTWKVDRNENYEKFMEKMGINVVKRKLGAHDNLKMTITQEGNKFTVKESSNFRNIDVVFELGVDFAYSAAFGTELTGTWTMEGNKLVGKFKRVDNGKELISVREISGNELIATYTYEGVEAKRIFKKE
3. 23L, 72A (protein, listed as Rattus norvegicus, PEPTIDE (1)...(131) wild-type rat intestinal fatty acid binding protein) AFDGTWKVDRNENYEKFMEKMGLNVVKRKLGAHDNLKLTITQEGNKFTVKESSNFRNIDVVFELGVDFAYSAADGTELTGTWTMEGNKLVGKFKRVDNGKELIAVREISGNELIQTYTYEGVEAKRIFKKE

2.154
1.690
1.174
